Numbers sourced from paper PMC9962638.

target: NDM-1 (Klebsiella pneumoniae, UniProt C7C422); construct: recombinant, expressed in E. coli; assay: fluorescence enzyme assay, fluorocillin hydrolysis
Sequence (C7C422 29-270 limits assumed): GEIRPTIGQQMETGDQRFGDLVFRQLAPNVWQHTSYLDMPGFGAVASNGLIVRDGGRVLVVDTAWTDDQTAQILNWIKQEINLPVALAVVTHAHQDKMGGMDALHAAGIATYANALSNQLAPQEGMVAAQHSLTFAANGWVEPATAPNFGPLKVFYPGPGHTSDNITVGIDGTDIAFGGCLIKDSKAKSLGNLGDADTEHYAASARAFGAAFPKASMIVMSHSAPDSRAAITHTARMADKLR
Hi there, I'd appreciate the recorded IC50 for every entry that follows.
Record the result as number plus unit.

So for COc1cccc(CC(CS)C(=O)N2CCCC[C@@H]2C(=O)O)c1OC (stereo partly shown) [compound 12] , the logged IC50 turned out to be 1.9 µM

So for C[C@H](CS)C(=O)N1CCN(C(=O)CCc2ccc(O)c(O)c2)C[C@@H]1C(=O)O [compound 3] , the logged IC50 turned out to be 0.13 µM

So for COc1ccc(CCC(=O)N2CCN(C(=O)[C@H](C)CS)[C@@H](C(=O)O)C2)cc1OC [compound 18] , the logged IC50 turned out to be 0.22 µM

So for O=C(O)[C@H]1CCCCN1C(=O)C(CS)Cc1cccc(O)c1O (stereo partly shown) [compound 2] , the logged IC50 turned out to be 4.3 µM
